Tested on: Lefty1
assay text: Lefty1 protein binding to printed compounds – biochemical, small-molecule microarray, 635/667 nm fluorescence, primary screen (AID 1139)
particulars: fluorescence 635/667, higher = more signal
reported metric: composite z-score
// print number alone

Field composite z-score (entry `C=CCNC(=O)[C@H]1[C@@H]2C(=O)O[C@@H](c3ccccc3)[C@@H](c3ccccc3)N2[C@@H](c2ccc(OCCO)cc2)[C@]12C(=O)Nc1ccccc12` ) reads -0.0965

Field composite z-score (entry `O=C(NCCN1CCOCC1)[C@@H]1c2ccccc2C(=O)N(Cc2ccc(OC(F)(F)F)cc2)[C@H]1c1ccc(CO)cc1` ) reads -0.332

Field composite z-score (entry `COC(=O)[C@@]1(Cc2ccccc2)[C@H]2c3cc(C(=O)N(C)C)n(CCO)c3C[C@H]2CN1C(=O)c1ccccc1` ) reads -0.986

Field composite z-score (entry `COc1ccc([Si](C)(C)[C@H]2[C@H](CC(=O)N3Cc4ccccc4C[C@H]3CO)O[C@@]3(C(=O)N(c4ccccc4)c4ccccc43)[C@@H]2C)cc1` ) reads 1.48

Field composite z-score (entry `C=C(CCCC)C(=O)CC[C@H](OC(=O)c1ccccc1-c1ccccc1C(=O)O)c1ccc(OCCO)cc1` ) reads 1.1

Field composite z-score (entry `COC(=O)C(CC#Cc1ccc2c(c1)[C@]1(C(=O)N2)[C@H](C(=O)N2CCc3cc(OC)c(OC)cc3C2)[C@H]2C(=O)O[C@H](c3ccccc3)[C@H](c3ccccc3)N2[C@@H]1c1ccccc1OCCO)C(=O)OC` ) reads 1.55

Field composite z-score (entry `O=C1[C@H]2C=C(I)[C@H](C[C@@H]2c2ccccc2)[C@@]12CO2` ) reads 0.334

Field composite z-score (entry `COCCCNC(=O)[C@@]1(CCC(=O)OC(C)(C)C)COC(c2ccc(OCCCO)cc2)=N1` ) reads -0.322

Field composite z-score (entry `O=C1O[C@H](Cc2ccccc2)[C@@H]2[C@H]3C=CCCC=C3CN2[C@H]1Cc1ccc(O)cc1` ) reads 0.262

Field composite z-score (entry `CCCC[C@H]1OB(O)C[C@H]2C1=C(COc1ccccc1)C[C@H]1C(=O)C=CC(=O)[C@H]12` ) reads 1

Field composite z-score (entry COc1ccc(NN2C(C(O)c3ccc(I)cc3)C=CC3C(=O)N(C4CCCCC4)C(=O)C32)cc1 (stereo not given) ) reads 0.946

Field composite z-score (entry `C=C(COC)C(=O)CC[C@@H](OC(=O)c1ccccc1-c1ccccc1C(=O)O)c1ccc(OCCO)cc1` ) reads 1.48

Field composite z-score (entry `C=CCN1C(=O)[C@@]2(O[C@@H](CCn3cc([C@H](O)c4ccccc4)nn3)[C@H]([Si](C)(C)c3ccc(OC)cc3)[C@H]2C)c2cc(N3C(=O)c4cccc5cccc3c45)ccc21` ) reads -0.475

Field composite z-score (entry `CN(C)CCCCNC(=O)[C@H]1C[C@H]2C(=O)N3CCC[C@H]3C(=O)N2[C@H]1c1cccc(OCCO)c1` ) reads 0.365

Field composite z-score (entry `O=C(O)[C@H](Cc1ccccc1)n1cc(C2(O)CCCCC2)nn1` ) reads 0.676

----------
Tested on: Inhibin beta A chain (activin A)
assay text: small molecules binding activin A – biochemical, small-molecule microarray, 635 nm fluorescence scan, primary screen (AID 1107);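 also: mouse activin A protein probed at 4.33 µg/mL on printed slides; score merges bound-protein fluorescence near 667 nm with spot signal-to-noise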
particulars: INHBA, higher = more signal
reported metric: composite z-score
// print number alone

Test item `CN(C)CCCNC(=O)[C@@]1(Cc2ccccc2I)c2ccccc2C(=O)N(C2CCCCC2)[C@H]1c1ccc(CO)cc1` ; Inhibin beta A chain (activin A); reported composite z-score was 1.32

Test item `C=CCNC(=O)[C@H]1[C@@H]2C(=O)O[C@@H](c3ccccc3)[C@@H](c3ccccc3)N2[C@@H](c2ccccc2OCCO)[C@]12C(=O)N(C(=O)OCCOC)c1ccc(C#Cc3ccc(OC)cc3)cc12` ; Inhibin beta A chain (activin A); reported composite z-score was 0.032

Test item O=C1C2C=CC(C(O)c3c(F)cccc3Cl)N(Nc3ccc([N+](=O)[O-])cc3)C2C(=O)N1c1ccccc1 (stereo unspecified) ; Inhibin beta A chain (activin A); reported composite z-score was 0.191

Test item NC(=O)N1C(=O)C2C(C1=O)C1C=C(CCCO)C2C(c2ccc(CN3CCCC3)cc2)N1Cc1cc2c(cc1Br)OCO2 (stereo unspecified) ; Inhibin beta A chain (activin A); reported composite z-score was 0.45

Test item CC(C)C[C@H]1NC(=O)C([C@@H](C)OCc2ccccc2)NC(=O)[C@@]23C(=O)N[C@@H](Cc4ccccc4)C2[C@H](C)[C@@]2(C)O[C@H]2C3/C=C/C/C=C\CNC1=O (stereo partly specified) ; Inhibin beta A chain (activin A); reported composite z-score was 1.24

Test item `O=C1O[C@@H](c2ccccc2)[C@@H](c2ccccc2)N2[C@@H](c3ccc(OCCO)cc3)[C@]3(C(=O)Nc4ccc(C#CCCO)cc43)[C@@H](C(=O)O)[C@H]12` ; Inhibin beta A chain (activin A); reported composite z-score was 1.34

----------
system tested: Dickkopf-related protein 1 (Homo sapiens)
assay text: small molecules binding DKK1 protein – biochemical, small-molecule microarray, 635 nm fluorescence scan, primary screen (AID 1106);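 also: score merges emission near 667 nm with signal to noise over three replicate slides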
particulars: higher = more signal
We'd kindly ask you to apply these composite z-score classes: low: < 0.05; middle: ≥ 0.05 and < 0.4; high: ≥ 0.4

Query :: Assign a bin to `COC(=O)[C@@]1(Cc2ccc(F)cc2)[C@H]2c3cc(C(=O)N(C)C)n(C)c3C[C@H]2CN1C(=O)c1ccccc1`
Result :: low

Query :: Assign a bin to CC(C)C[C@@H]1NC(=O)[C@@]23C(=O)N[C@@H](Cc4ccccc4)C2[C@H](C)[C@@]2(C)O[C@H]2C3/C=C/C/C=C\CNC(=O)CNC1=O (stereo partly drawn)
Result :: middle

Query :: Assign a bin to `COC(=O)[C@@]1(Cc2ccc(OC)cc2)[C@H]2c3cc(C(=O)N4CCCC4)n(Cc4c(CO)[nH]cc(C)c4=O)c3C[C@H]2CN1C(=O)c1ccccc1`
Result :: low

Query :: Assign a bin to `COCCOC(=O)N1C(=O)[C@@]2(c3cc(C#CC4(O)CCCCCC4)ccc31)[C@H](c1ccc(O)cc1)N1[C@H](c3ccccc3)[C@H](c3ccccc3)OC(=O)[C@H]1[C@@H]2C(=O)N1CCCCCCC1`
Result :: middle

Query :: Assign a bin to [N-]=[N+]=Nc1ccccc1[C@H]1OC(c2ccc(OCCCO)cc2)=N[C@@]1(Cc1ccccc1)C(=O)NCC(O)CO (stereo partly drawn)
Result :: low

Query :: Assign a bin to `CN(C)CCCC[C@@H]1NC(=O)[C@@H]2C[C@H](C(=O)NCCCCCCNC(=O)CS)[C@H](c3ccc(O)cc3)N2C1=O`
Result :: high

Query :: Assign a bin to CCCc1cc2c(n1CCc1ccc(Cl)cc1)C(C)C1CN(C(=O)c3ccccc3)C(C)(C(=O)OC)C21 (stereo not drawn)
Result :: low

Query :: Assign a bin to `O=C1O[C@@H](c2ccccc2)[C@@H](c2ccccc2)N2[C@@H](c3ccc(OCCO)cc3)[C@]3(C(=O)Nc4ccc(C#CC5(O)CCCCCC5)cc43)[C@@H](C(=O)Nc3nc4ccccc4s3)[C@H]12`
Result :: high

Query :: Assign a bin to `O=C(NC1CC1)[C@@H]1c2ccccc2C(=O)N(Cc2ccc(OC(F)(F)F)cc2)[C@H]1c1ccc(CO)cc1`
Result :: high

Query :: Assign a bin to C=CCC(OC(C)=O)[C@@H]1[C@@H](N(Cc2cc3ccccc3o2)C(=O)Cc2ccc(OC)cc2)c2cc(OCCCO)ccc2N1C(=O)c1ccc2ccccc2n1 (stereo partly drawn)
Result :: low

Query :: Assign a bin to `CC(C)C[C@@H]1NC(=O)[C@@H]2C[C@H](C(=O)NCCCCCCNC(=O)CS)[C@H](c3cccc(OCCO)c3)N2C1=O`
Result :: high

----------
I'd appreciate it if you could supply z-score values for the items below.
assay text: resazurin metabolic signal in HepG2 cells – cell-based, resazurin fluorescence, 24 h, PK04 Diversity Set, profiling panel (AID 1172); also: test concentration not given here
particulars: HepG2 viability, higher = more signal
// print number alone

Field z-score (entry CC(C)OC(=O)CC(=O)CC(O)c1cccc([N+](=O)[O-])c1 (configuration not stated) ) reads -0.476

Field z-score (entry `COc1ccc([Si](C)(C)[C@@H]2[C@@H](CC(=O)N3Cc4ccccc4C[C@H]3CO)O[C@]3(C(=O)N(Cc4ccc(N5CCOC5=O)cc4)c4ccccc43)[C@H]2C)cc1` ) reads -0.231

Field z-score (entry `O=C(NC1CC1)[C@@H]1c2ccccc2C(=O)N(Cc2cc(C(F)(F)F)cc(C(F)(F)F)c2)[C@H]1c1ccc(CO)cc1` ) reads -0.0465

Field z-score (entry `COC(=O)[C@@]1(Cc2ccccc2)N=C(c2ccc(OCCCO)cc2)O[C@H]1c1ccccc1CN=[N+]=[N-]` ) reads -4.1

Field z-score (entry CCCCC(O)C1C=CC2C(=O)N(c3ccccc3)C(=O)C2N1Nc1ccc([N+](=O)[O-])cc1 (configuration not stated) ) reads 0.172

Field z-score (entry `COc1ccc([Si](C)(C)[C@@H]2[C@@H](CC(=O)N3CCC[C@H]3CO)O[C@]3(C(=O)N(Cc4cccc(N5CCCCC5=O)c4)c4ccccc43)[C@H]2C)cc1` ) reads -1.26

Field z-score (entry `CO[C@H]1O[C@H](CO)[C@@H](OC(=O)Nc2ccccc2-c2ccccc2)[C@H](OC(=O)Nc2ccccc2)[C@H]1OC(=O)Nc1ccccc1` ) reads -1.68
